Test system: K-562
Test readout: GI50
Value and unit, in that order.

// solved cases for GI50 follow
CC1=C2[C@@H](CC1)[C@]1(C)O[C@@](c3ccccc3)(C[C@H]1OC(=O)CO)[C@H]2OC(=O)C=Cc1ccccc1 [(Ir)] : 16 µM
CC1=C2[C@@H](CC1)[C@]1(C)O[C@@](C(C)C)(C[C@H]1OC(=O)CO)[C@H]2OC(=O)/C=C/c1ccccc1 [Compound (Ih)] : 38 µM
CC1=C2[C@@H](CC1)[C@]1(C)O[C@@](C3CCCCC3)(C[C@H]1OC(=O)CO)[C@H]2OC(=O)C=Cc1ccccc1 [(Iq)] : 13 µM
CC(=O)O[C@@H]1C[C@]2(C(C)C)O[C@@]1(C)[C@@H]1CCC(C)=C1[C@@H]2OC(=O)C=Cc1ccccc1 [(Im)] : 34 µM
CC1=C2[C@@H](CC1)[C@]1(C)O[C@@](C(C)C)(C[C@H]1OC(=O)CO)[C@H]2OC(=O)C1CC1c1ccccc1 (stereo partly shown) [Compound (Ij)] : 15 µM

Provide GI50 for all items below, preserving their order.
1. CC1=C2[C@@H](CC1)[C@]1(C)O[C@@](C3CC3)(C[C@H]1OC(=O)CO)[C@H]2OC(=O)C=Cc1ccccc1 [Compound (Is)]
2. CC1=C2[C@@H](CC1)[C@]1(C)O[C@@](C(C)C)(C[C@H]1OC(=O)[C@H](C)O)[C@H]2OC(=O)C=Cc1ccccc1 [(Il)]

1: 20 µM; 2: 15 µM
